Data origin: patent US20260191981A1

Measured Kd by item
assay system: T1, his-tagged cTfR1 (Acro Biosystems p/n TFR-C524a) (cynomolgus monkey, UniProt H9EXL1 89-760 (rhesus entry))
T1 construct: Bought reagent of the SPR assay
T1 sequence (chain, as listed by the source): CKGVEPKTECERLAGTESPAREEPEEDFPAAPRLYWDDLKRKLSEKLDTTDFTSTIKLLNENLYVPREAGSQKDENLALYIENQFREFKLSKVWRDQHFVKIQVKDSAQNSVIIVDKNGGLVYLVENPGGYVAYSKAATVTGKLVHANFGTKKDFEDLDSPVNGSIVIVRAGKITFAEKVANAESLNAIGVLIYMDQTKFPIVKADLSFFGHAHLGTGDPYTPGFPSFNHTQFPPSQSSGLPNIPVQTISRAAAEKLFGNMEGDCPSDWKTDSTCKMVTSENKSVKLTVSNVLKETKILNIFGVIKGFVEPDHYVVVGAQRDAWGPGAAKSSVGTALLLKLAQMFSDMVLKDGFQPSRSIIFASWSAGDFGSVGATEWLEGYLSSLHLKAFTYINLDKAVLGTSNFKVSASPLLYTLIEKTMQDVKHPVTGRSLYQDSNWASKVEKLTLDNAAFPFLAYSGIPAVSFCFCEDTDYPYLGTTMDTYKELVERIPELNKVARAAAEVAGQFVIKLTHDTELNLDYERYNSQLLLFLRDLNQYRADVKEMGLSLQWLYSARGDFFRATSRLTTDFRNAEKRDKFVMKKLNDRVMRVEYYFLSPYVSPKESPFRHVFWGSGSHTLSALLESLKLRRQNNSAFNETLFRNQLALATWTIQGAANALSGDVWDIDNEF
protocol summary: SPR, Biacore X100, His-tagged TfR1 captured by anti-His
Expressed in nM, but write only the number.

Q: Record request: Kd value, item Fab0069 (Fab, V domains shown) VH: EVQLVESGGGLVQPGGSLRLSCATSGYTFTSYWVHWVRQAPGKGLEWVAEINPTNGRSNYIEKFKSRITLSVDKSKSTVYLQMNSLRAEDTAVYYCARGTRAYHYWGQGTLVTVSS VL: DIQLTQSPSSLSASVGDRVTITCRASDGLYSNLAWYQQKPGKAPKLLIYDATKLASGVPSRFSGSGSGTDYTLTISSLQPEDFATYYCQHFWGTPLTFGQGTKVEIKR
A: 2.72
